# experimentalDetails: A CellTox Green Cytotoxicity Assay to monitor cytotoxicity in HepG2 cells - 16 hour (AID 1224876); also: nearly all actives have a fitted effect of over 45% in size
# runConditions: CellTox Green fluorescence; series mostly up to 76.8 µM
Results filed as inconclusive are left out. The source made the active and inactive calls. Calls follow the shape of the dose curve; as a rule, active = well fitted activation curve with a large enough effect in the repeat runs; inconclusive = weak or mixed curves; inactive = flat fitted curve, though single readings scatter.
Classes used: YES = active, NO = inactive

INSERT INTO assay_data (molecule, grouplabel) VALUES
  ('O=C1NCCN1CCO', 'NO'),
  ('CCC(C)COC(C)=O (configuration not stated)', 'NO'),
  ('CC1(C)O[C@@H]2C[C@H]3[C@@H]4C[C@H](F)C5=CC(=O)C=C[C@]5(C)[C@H]4[C@@H](O)C[C@]3(C)[C@]2(C(=O)CO)O1', 'NO'),
  ('CC(=O)OCCN(CCOC(C)=O)c1ccc(N=Nc2ccc([N+](=O)[O-])cc2C#N)cc1', 'NO'),
  ('CC(O)c1ccccc1 (configuration not stated)', 'NO'),
  ('C[C@@H](CN(C)C)CN1c2ccccc2Sc2ccccc21', 'YES'),
  ('COc1ccccc1N1CCN(CCCCNC(=O)c2ccc(-c3ccc(C(C)=O)cc3)cc2)CC1', 'NO'),
  ('O=c1[nH]ncc2ccccc12', 'NO'),
  ('CCCCCCCCCCC(=O)O', 'NO'),
  ('C=C(C)C(=O)OCCCCCCCCCCCCC', 'NO'),
  ('C[C@@H](O)[C@H]1C(=O)N2C(C(=O)O)=C([C@H]3CCCO3)S[C@H]12', 'NO'),
  ('Cc1cscn1', 'NO');
